method_description: mitochondrial membrane potential change in A549 cells, profiling panel, cell-based, JC-1 fluorescence, basal, 24 h, 100 nL (AID 1138);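 further: A549 lung adenocarcinoma cells under basal conditions with no added stimulus; test concentration not given here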
condition_set: higher = more signal
Class assignment keyed on z-score, ranges lower segment: < -0.8; middle segment: ≥ -0.8 and < 0.2; upper segment: ≥ 0.2

Example results:
molecule	class_label
O=C1C2C=CC(C(O)c3ccc(-c4ccccc4)s3)N(n3cnnc3)C2C(=O)N1Cc1ccccc1 (stereo not given)	lower segment
CCOC(=O)C[C@H]1[C@H](OC(=O)c2ccc(-c3ccccc3)cc2)[C@@H](NC(=O)c2ccc3ccccc3c2)c2cc(OCCCO)ccc2N1C(=O)Cc1ccc(OC)cc1	middle segment
CC(C)OC(=O)CC(=O)CC(O)c1ccc(C#N)cc1 (stereo not given)	upper segment
[N-]=[N+]=NCc1ccccc1[C@H]1OC(c2ccc(OCCCO)cc2)=N[C@@]1(CCS(=O)(=O)c1ccccc1)C(=O)N1CCOCC1	lower segment

Request: Class for CC(c1ccccc1)C(O)C1C=CC2C(=O)NC(=O)C2N1Nc1ccccn1 (stereo not given) ?
Result: upper segment

Request: Class for `COc1ccc([Si](C)(C)[C@H]2[C@H](CC(=O)N(CCO)Cc3ccccc3)O[C@@]3(C(=O)N(Cc4cccc(N5CCC5=O)c4)c4ccccc43)[C@@H]2C)cc1` ?
Result: middle segment

----------
method_description: small-molecule microarray binders of probe aCHRDL2, primary screen, biochemical, biotinylated probe, 635/667 nm fluorescence (AID 1100)
condition_set: higher = more signal
quantity: composite z-score

compound	composite z-score
COCCOC(=O)N1C(=O)[C@@]2(c3cc(C#CCC(C(=O)OC)C(=O)OC)ccc31)[C@H](c1ccc(O)cc1)N1[C@H](c3ccccc3)[C@H](c3ccccc3)OC(=O)[C@H]1[C@@H]2C(N)=O	0.461
C[C@]1(C(=O)NCc2ccccc2)c2ccccc2C(=O)N(Cc2cc(F)cc(C(F)(F)F)c2)[C@H]1c1ccc(CO)cc1	0.637
C=CCC(OC(C)=O)[C@@H]1[C@@H](N(Cc2ccc(-c3ccccc3)cc2)C(=O)Cc2ccc(F)cc2)c2cc(OCCCO)ccc2N1C(=O)c1ccc2ccccc2n1 (stereo partly specified)	0.531
COCCOC(=O)N1C(=O)[C@@]2(c3cc(C#CCNC(N)=O)ccc31)[C@H](c1ccc(OCCO)cc1)N1[C@H](c3ccccc3)[C@H](c3ccccc3)OC(=O)[C@H]1[C@@H]2C(=O)N1CCc2cc(OC)c(OC)cc2C1	0.676
COCC(=C=CC[C@H](O)c1ccc(OCCO)cc1)C[C@H](O)c1cc(Cl)cc(Cl)c1O	-0.0229

Request: Look up composite z-score: CC(C)C(O)C1C=CC2C(=O)N(c3ccccc3)C(=O)C2N1Nc1ccc(C#N)cc1 (stereo unspecified)
Result: 1.26

----------
method_description: P. aeruginosa biofilm formation inhibitors, primary screen, PAO1 strain, BacTiter-Glo luminescence, LB-PBS (AID 1144)
condition_set: 12 h, higher = more signal
Classify as follows. Reported z-score greater than or equal to 0.2: class 1. Reported z-score below: class 0.

Example results:
compound	class_label
C#CCN(C(/C=C/c1ccccc1)CO)C(C(=O)O)c1ccccc1 (configuration not stated)	class 1
CCOC(=O)[C@H]1C[C@H]2O[C@@]23C[C@H]1C(=O)N1CCCC1[C@@H]3O[Si](C)(C)C(C)(C)C (some centres not stated)	class 1
COc1ccc(C(=O)Nc2cccc(CN3C(=O)[C@]4(O[C@H](CC(=O)N5CCC[C@H]5CO)[C@@H]([Si](C)(C)c5ccc(OC)cc5)[C@@H]4C)c4ccccc43)c2)cc1	class 1

Request: API: above_or_equal(metric=z-score, cutoff=0.2) for item Cc1ccccc1C(O)C1C=CC2C(=O)N(C)C(=O)C2N1N1CCCCC1 (configuration not stated)
Result: class 1

Request: API: above_or_equal(metric=z-score, cutoff=0.2) for item `COc1ccc([Si](C)(C)[C@H]2[C@H](CC(=O)N(CCO)Cc3ccccc3)O[C@@]3(C(=O)N(Cc4cccc(N5CCC5=O)c4)c4ccccc43)[C@@H]2C)cc1`
Result: class 0

Request: API: above_or_equal(metric=z-score, cutoff=0.2) for item `O=C1O[C@H](c2ccccc2)[C@H](c2ccccc2)N2[C@H]1[C@@H](C(=O)NC[C@H](O)c1ccccc1)[C@]1(C(=O)Nc3ccc(C#CCCO)cc31)[C@H]2c1ccc(O)cc1`
Result: class 0

Request: API: above_or_equal(metric=z-score, cutoff=0.2) for item `C=CC[C@@H](OC(=O)Nc1ccc(OC)cc1)c1ccc(O)c2ccccc12`
Result: class 0
